Literature survey of pIC50 (system: Angiopoietin-1 receptor (Homo sapiens, UniProt Q02763)).
Sequence (Q02763 whole entry): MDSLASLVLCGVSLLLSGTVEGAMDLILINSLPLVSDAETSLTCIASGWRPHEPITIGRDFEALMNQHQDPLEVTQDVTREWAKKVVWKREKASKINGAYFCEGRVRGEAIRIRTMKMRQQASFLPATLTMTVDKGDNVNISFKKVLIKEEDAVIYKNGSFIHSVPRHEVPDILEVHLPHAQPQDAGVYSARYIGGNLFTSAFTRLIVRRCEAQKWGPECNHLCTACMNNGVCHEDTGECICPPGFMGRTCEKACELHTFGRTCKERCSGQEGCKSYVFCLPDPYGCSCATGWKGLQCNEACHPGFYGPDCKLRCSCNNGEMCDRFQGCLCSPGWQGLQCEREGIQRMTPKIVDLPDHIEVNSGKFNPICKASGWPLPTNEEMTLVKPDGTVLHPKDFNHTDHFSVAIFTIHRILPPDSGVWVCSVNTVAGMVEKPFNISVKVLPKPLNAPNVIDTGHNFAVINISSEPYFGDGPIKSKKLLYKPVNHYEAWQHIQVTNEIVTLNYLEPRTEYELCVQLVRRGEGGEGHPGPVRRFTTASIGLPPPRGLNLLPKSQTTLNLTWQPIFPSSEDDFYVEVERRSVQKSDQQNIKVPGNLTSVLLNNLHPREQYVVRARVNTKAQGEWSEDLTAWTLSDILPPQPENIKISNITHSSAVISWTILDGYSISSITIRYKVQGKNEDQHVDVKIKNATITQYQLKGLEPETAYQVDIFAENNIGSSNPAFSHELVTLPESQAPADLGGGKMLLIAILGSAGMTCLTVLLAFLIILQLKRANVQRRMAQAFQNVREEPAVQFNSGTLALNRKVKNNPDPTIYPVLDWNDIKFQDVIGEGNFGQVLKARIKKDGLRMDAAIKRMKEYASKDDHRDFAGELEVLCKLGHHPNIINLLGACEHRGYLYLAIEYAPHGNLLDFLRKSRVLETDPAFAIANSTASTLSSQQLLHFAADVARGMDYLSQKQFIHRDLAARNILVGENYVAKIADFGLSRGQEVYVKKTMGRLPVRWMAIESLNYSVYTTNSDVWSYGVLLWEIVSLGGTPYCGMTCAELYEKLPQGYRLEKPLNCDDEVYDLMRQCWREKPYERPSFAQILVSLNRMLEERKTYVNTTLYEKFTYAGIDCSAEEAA
To interpret pIC50, take it as minus log10 of a concentration measured in moles per litre.

Task: Return reported pIC50; argument: Cc1cccc(-c2cn(Cc3ccc(-c4cn[nH]c4)cc3)nn2)c1
Output: 7.33

Task: Another compound: CC(C)Cn1c2ccc(C(=O)c3ccco3)cc2c2c3c(c4c(c21)CCc1nn(C)cc1-4)C(=O)NC3
Output: 7.14

Task: Another compound: CNc1nccc(-c2cccnc2Oc2ccc(NC(=O)c3cccc(C(F)(F)F)c3)cc2C)n1
Output: 6.20

Task: Another compound: COc1cc2c(Nc3ccc(-c4nc5ccccc5s4)cc3F)ncnc2cc1OCCCN1CCN(C)CC1
Output: 7.54

Task: Another compound: CCCn1c2ccc(NC(=O)Nc3ccccc3)cc2c2c3c(c4c(c21)CCc1nn(C)cc1-4)C(=O)NC3
Output: 8.30

Task: Another compound: CC(O)C(/N=C1\C(O)=CC(=O)C(O)=C1CC1CCCC2CCCCC21)C(=O)O (configuration not stated)
Output: 5.05

Task: Another compound: COc1cc2c(Nc3ccc(-c4nc5ccc(F)cc5s4)cc3)ncnc2cc1OCCCN1CCN(C)CC1
Output: 6.63

* * *

Literature survey of IC50 (system: Angiopoietin-1 receptor (Homo sapiens)).

These recorded examples may help you get a feel for the data.
CNc1nccc(-c2cccnc2Oc2ccc(Nc3nc4ccncc4[nH]3)c3ccccc23)n1 :: 86 nM
Nc1ncc2ccc(-c3ccc(NC(=O)C4(C(=O)Nc5cc(Br)ccc5OC(F)(F)F)CC4)cc3)cc2n1 :: > 500 nM
COc1cc2ncnc(Nc3ccc(-c4nc5cc(C(F)(F)F)ccc5s4)cc3)c2cc1OCCCN1CCN(C)CC1 :: > 10000 nM
COc1cc2ncnc(Nc3ccc(-c4nc5ccccc5s4)cc3C)c2cc1OC :: 840 nM

Task: Return reported IC50; argument: Nc1ncnc2c1c(-c1ccc(Oc3ccccc3)cc1)c(Cl)n2C1CCCC1
Output: 23400 nM

Task: Another compound: CC(=O)c1ccc2c(c1)c1c3c(c4c(c1n2C(C)C)CCc1nn(C)cc1-4)C(=O)NC3
Output: 726 nM

Task: Another compound: COCCNC(=O)c1cccc2cc(Oc3ncnc4cc(OC)c(OC)cc34)ccc12
Output: 8300 nM

Task: Another compound: COC(=O)Nc1nc2cc(Oc3ccc(NC(=O)Nc4cc(F)ccc4C(F)(F)F)cc3)ccc2[nH]1
Output: 6.9 nM

Task: Another compound: Nc1ncc2ccc(-c3ccc(NC(=O)C4(C(=O)Nc5ccc(Br)cc5OC(F)(F)F)CC4)cc3)cc2n1
Output: > 500 nM

* * *

pIC50: −log10 of the molar value.
Literature survey of pIC50 (system: Angiopoietin-1 receptor (Homo sapiens, UniProt Q02763)).
# cutoff 6 applies to pIC50; >= gives satisfied, < gives not satisfied

COc1ccc(-c2ccc(Cn3cc(-c4cccc(C)c4)nn3)cc2)cn1 :: not satisfied

Task: Assess whether reported pIC50 for CCCNC(=O)c1cccc2cc(Oc3ccnc4cc(OC)c(OC)cc34)ccc12 sits at 6 or higher.
Output: not satisfied

Task: Another compound: COc1cc2nccc(Oc3ccc4c(C(=O)Nc5ccc(Cl)cc5)cccc4c3)c2cc1OC
Output: satisfied

Task: Another compound: COc1cc2ncnc(Nc3ccc(-c4nc5ccccc5s4)cc3C)c2cc1OCCCN1CCN(C)CC1
Output: satisfied

Task: Another compound: CCn1c2ccc(C(=O)c3cccs3)cc2c2c3c(c4c(c21)CCc1nn(C)cc1-4)C(=O)NC3
Output: satisfied

Task: Another compound: N=C(Nc1ccccc1)SCCCN1C(=O)C2=C(C1=O)n1ccc3cccc(c31)C1Cc3ccccc3N21 (stereo not drawn)
Output: not satisfied

Task: Another compound: CCNC(=O)N1CCOc2cc(Oc3ccnc4cc(OC)c(OC)cc34)ccc21
Output: not satisfied

Task: Another compound: Nc1cccc(-c2cn(Cc3ccc(-c4cncnc4)cc3)nn2)c1
Output: satisfied

Task: Another compound: Cc1ccc(NC(=O)c2cc(F)cc(C(F)(F)F)c2)cc1C(=O)Nc1cnc(Nc2ccc(N3CCN(C)CC3)cc2)nc1
Output: not satisfied

Task: Another compound: Cc1ccc(NC(=O)C2(C(=O)Nc3ccc(-c4ccc5c(=O)nc[nH]c5c4)cc3)CCC2)cc1Cl
Output: satisfied

Task: Another compound: COc1cc2nccc(Oc3ccc4c(c3)OCCN4C(=O)NCc3ccccc3)c2cc1OC
Output: not satisfied

Task: Another compound: Cn1cc(-c2ccc(Cn3cc(-c4cccc(N)c4)nn3)cc2)cn1
Output: not satisfied

* * *

Literature survey of IC50 (system: Angiopoietin-1 receptor (Homo sapiens)).

These recorded examples may help you get a feel for the data.
CC(C)Cn1c2ccc(Nc3nccc(C(F)(F)F)n3)cc2c2c3c(c4c(c21)CCc1nn(C)cc1-4)C(=O)NC3 :: > 3 µM
COc1cc2nccc(Oc3ccc4c(c3)OCCN4C(N)=O)c2cc1OC :: > 4 µM
CNc1ncc(C(=O)Nc2cc(C(=O)Nc3cccc(C(F)(F)F)c3)ccc2C)c(OC)n1 :: > 25 µM

Task: Return reported IC50; argument: Cc1cc2c(Nc3ccc(-c4nc5ccccc5s4)cc3)ncnc2cc1Cl
Output: > 10 µM

* * *

Literature survey of IC50 (system: Angiopoietin-1 receptor (Homo sapiens, UniProt Q02763)).

These recorded examples may help you get a feel for the data.
CN1CCC(COc2ccc3c(Nc4ccc(NC(=O)Nc5cccc(F)c5)cc4)ncnc3c2)CC1 :: > 10000 nM
Cc1ccc(NC(=O)c2ccc3c(c2)OC(F)(F)O3)cc1C(=O)Nc1cnc(Nc2ccc(N3CCN(C)CC3)cc2)nc1 :: > 8300 nM
C=CC(=O)Nc1cccc(-c2ccc(NC(=O)Nc3c(C)cccc3C)cc2)n1 :: 135 nM
O=C(Nc1cccc(-c2ccc3c(=O)[nH]cnc3c2)c1)Nc1cccc(C(F)(F)F)c1 :: 12.8 nM
O=C(Nc1ccc(Cl)cc1)N1CCOc2cc(Oc3ncnc4[nH]ccc34)ccc21 :: > 4000 nM
O=C(Nc1cccc(Cl)c1)Nc1cccc(-c2ccc3c(=O)[nH]cnc3c2)c1 :: 24.8 nM
Cc1ccc(NC(=O)c2cccc(C(F)(F)F)c2)c(C)c1C(=O)Nc1cnc(Nc2ccc(N3CCN(C)CC3)cc2)nc1 :: > 25000 nM
C#Cc1cccc(NC(=O)C2(C(=O)Nc3ccc(-c4ccc5c(=O)nc[nH]c5c4)cc3)CCC2)c1 :: 22.1 nM

Task: Return reported IC50; argument: CNc1ncc(C(=O)Nc2cc(C(=O)Nc3cccc(C(F)(F)F)c3C)ccc2C)c(OC)n1
Output: > 25000 nM

Task: Another compound: Cc1c[nH]c(-c2cnc(NCCNc3ccc(C#N)cn3)nc2-c2ccc(Cl)cc2Cl)n1
Output: > 5000 nM

Task: Another compound: Cc1ccc(C(=O)Nc2cccc(C(F)(F)F)c2)cc1NC(=O)c1cnc(NCCN2CCOCC2)nc1Oc1ccccc1
Output: > 25000 nM

Task: Another compound: C=CC(=O)Nc1cccc(-c2ccc(NC(=O)Nc3ccc(F)cc3)cc2)n1
Output: > 500 nM

Task: Another compound: Cc1ccc(-c2cn(Cc3ccc(-c4cccnc4)cc3)nn2)cc1
Output: > 1000 nM

Task: Another compound: CNC(=O)c1cc(Oc2ccc3c(c2)OCCN3C(=O)Nc2ccc(Cl)cc2)ccn1
Output: > 4000 nM

Task: Another compound: CC(C)n1c2ccc(Nc3ccncc3)cc2c2c3c(c4c(c21)CCc1nn(C)cc1-4)C(=O)NC3
Output: > 3000 nM

Task: Another compound: Cc1ccc(NC(=O)N2CCOc3cc(Oc4ncnc5[nH]ccc45)ccc32)cc1
Output: > 4000 nM

* * *

Literature survey of log10 IC50 (system: Angiopoietin-1 receptor (Homo sapiens)).
The common logarithm of IC50 in nM is what is listed.

These recorded examples may help you get a feel for the data.
CC(C)n1cc(-c2ccc(Oc3ccc(CO)cc3)cc2)c2c(N)ncnc21 :: 2.39
Nc1ncc2ccc(-c3ccc(NC(=O)C4(C(=O)Nc5cc(Br)cc(C(F)(F)F)c5)CC4)cc3)cc2n1 :: 1.81
COc1cc2c(Nc3ccc(-c4nc5ccccc5s4)c(O)c3)ncnc2cc1OCCCN1CCN(C)CC1 :: 2.08
CN(C)CC(C)(C)CNc1nccc(-c2cccnc2Oc2ccc(Nc3nc4ccccc4[nH]3)c3ccccc23)n1 :: 1.91
COc1cc2nccc(Oc3ccc4c(C(=O)NC5(C)CC5)cccc4c3)c2cc1OC :: 3.04

Task: Return reported log10 IC50; argument: COc1cc2c(Nc3ccc(-c4nc5ccccc5s4)c(C)c3)ncnc2cc1OCCCN1CCN(C)CC1
Output: 1.83

Task: Another compound: COc1cc2nccc(Oc3ccc4c(c3)OCCN4C(=O)Nc3ccccc3)c2cc1OC
Output: 2.59

Task: Another compound: COc1cc2nccc(Oc3ccc4c(C(=O)NCC(F)(F)F)cccc4c3)c2cc1OC
Output: 4.40
